Molecular target: T1, human leukocyte elastase (human, UniProt P08246 30-267)
T1 construct: mature; Active enzyme purified from human neutrophils; also called hLE
T1 sequence (looked up): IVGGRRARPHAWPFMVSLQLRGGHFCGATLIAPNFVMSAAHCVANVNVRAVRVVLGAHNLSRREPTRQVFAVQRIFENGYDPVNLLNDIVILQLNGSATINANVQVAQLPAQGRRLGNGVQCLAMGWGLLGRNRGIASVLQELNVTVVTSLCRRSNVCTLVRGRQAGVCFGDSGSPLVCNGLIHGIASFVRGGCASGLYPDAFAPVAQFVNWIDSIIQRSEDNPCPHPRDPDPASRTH
Experiment: hLE enzyme inhibition kinetics, cleavage of MeOSuc-AAPV-NA
Can you tell me pKi for the items I'm about to list?
Formally, pKi is defined as -log10 of the concentration c, with c in mol/L.

What measured pKi goes with EILIFWSKDI (Synthetic; also called pep14) [peptide 14 (CRP62-71)] ?
5.17

Next entry: EILIFWSVDI (10-mer analog of peptide 14 (CRP62-71) with Lys69 replaced by Val; also called pep26) [peptide 26]
5.70

Next entry: ATKRQDNEILIFWSKDIGYSFTVGGSEIL (Synthetic 29-mer) [peptide 17 (CRP55-83)]
5.14

Next entry: DILIFWSKDIGYSFT (Analog of peptide 6 (CRP62-76) with Glu62 replaced by Asp; also called pep18) [peptide 18]
5.66

Next entry: ILIFWSKDIGYSFT (Synthetic) [peptide 11 (CRP63-76)]
5.35

Next entry: EILIFWSKEIGYSFT (Analog of peptide 6 (CRP62-76) with Asp70 replaced by Glu; also called pep23) [peptide 23]
6.26

Next entry: EILIFWSKDIGY (Synthetic; also called pep13) [peptide 13 (CRP62-73)]
5.96

Next entry: TFSYGIDKSWFILIE [peptide 24 (reverse sequence of peptide 6)]
5.00

Source: patent US6528618B1
